Target: cathepsin S (Homo sapiens, UniProt P25774)
Sequence (P25774 115-331, species assumed): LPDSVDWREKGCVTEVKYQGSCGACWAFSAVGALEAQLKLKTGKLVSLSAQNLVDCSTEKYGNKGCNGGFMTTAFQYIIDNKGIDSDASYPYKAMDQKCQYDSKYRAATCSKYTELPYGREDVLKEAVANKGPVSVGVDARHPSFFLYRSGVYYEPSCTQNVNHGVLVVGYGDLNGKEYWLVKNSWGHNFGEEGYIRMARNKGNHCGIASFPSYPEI
Test: Inhibitory activity assay against cathepsin S (enzyme assay)
Type: biochemical
Details: Z-Phe-Arg-AMC 70 μM, enzyme 3 nM, pH 6.5, 45 minutes
Method: In order to measure the enzyme activity of cathepsin S, a buffer solution (pH 6.5) consisting of 50 mM MES, 2.5 mM DTT, 1.0 mM EDTA, 0.001% bovine serum albumin (BSA), and 10% DMSO was prepared. […] After reacting the mixture of substrate, test material, and enzyme for 45 minutes, the enzyme activity was measured with the EnVision (Perkin Elmer) microplate reader at an absorption wavelength of 340 nm and an emission wavelength of 460 nm. […]
MEASUREMENT_KIND: IC50 (nM)

N#Cc1nccc(C2(NC(=O)OCc3ccccc3)CCCCC2)n1: 7010

I = N#Cc1nccc(C2(NC(=O)Nc3ccc(-c4ccc(F)nc4)cc3)CCCCC2)n1
II = CS(=O)(=O)c1ccc(-c2ccc(NC(=O)NC3(c4ccnc(C#N)n4)CCCCC3)cc2F)cc1
Of I and II , which carries the smaller reported IC50 figure? Lab log: write the label of the selected item as the result.
II
(II: 1110 nM, I: 5420 nM)

====

Target: UniProtKB P43235
Sequence (P43235 115-329, species assumed): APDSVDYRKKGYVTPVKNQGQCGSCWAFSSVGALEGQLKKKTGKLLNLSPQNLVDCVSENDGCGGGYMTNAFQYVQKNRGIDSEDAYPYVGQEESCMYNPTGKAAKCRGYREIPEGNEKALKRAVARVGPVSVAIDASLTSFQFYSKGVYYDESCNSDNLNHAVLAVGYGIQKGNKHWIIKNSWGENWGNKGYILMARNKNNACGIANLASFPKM
Assay: Inhibitory activity assay against cathepsin K (enzyme assay)
Format: biochemical
Settings: Z-Phe-Arg-AMC 10 μM, enzyme 1 nM, pH 5.5, 30 minutes
MEASUREMENT_KIND: IC50 (nM)

The following compounds have reported results that may help.
N#Cc1nccc(C2(NC(=O)NCc3ccc(C(F)(F)F)cc3)CCCC2)n1: 116
COc1ccc(COC(=O)NC2(c3ccnc(C#N)n3)CCCCC2)cc1: 41
N#Cc1nccc(C2(NC(=O)Nc3ccc(I)c(C(F)(F)F)c3)CCCCC2)n1: 24.5

I = CS(=O)(=O)Nc1ccc(-c2ccc(NC(=O)NC3(c4ccnc(C#N)n4)CCCCC3)cc2C(F)(F)F)cc1
II = N#Cc1nccc(C2(NC(=O)Nc3ccc(C#Cc4ccc(CO)cc4)cc3)CCCCC2)n1
III = CS(=O)(=O)c1ccc(-c2ccc(NC(=O)NC3(c4ccnc(C#N)n4)CCCCC3)cc2)cc1
IV = N#Cc1nccc(C2(NC(=O)Nc3ccc(C(F)(F)F)cc3)CCCC2)n1
V = N#Cc1nccc(C2(NC(=O)Nc3cc(C(F)(F)F)ccc3CO)CCCCC2)n1
Sort the 5 compounds by IC50; largest first, smallest last. // ordering of labels required in reply
IV, II, I, V, III

====

Molecular target: cathepsin L (Homo sapiens, UniProt P07711)
Sequence (P07711 114-333, species assumed): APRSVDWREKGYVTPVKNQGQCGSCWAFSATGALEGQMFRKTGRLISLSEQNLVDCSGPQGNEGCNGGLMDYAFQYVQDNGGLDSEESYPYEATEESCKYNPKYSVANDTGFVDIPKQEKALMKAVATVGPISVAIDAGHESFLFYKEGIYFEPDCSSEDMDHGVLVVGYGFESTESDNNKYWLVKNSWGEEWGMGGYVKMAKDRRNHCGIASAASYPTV
Assay: Inhibitory activity assay against cathepsin L (enzyme assay)
Format: biochemical
Conditions: Z-Phe-Arg-AMC 2 μM, enzyme 3 nM, pH 5.5, 30 minutes
Procedure: In order to measure the enzyme activity of cathepsin L, a buffer solution (pH 5.5) consisting of 50 mM MES, 2.5 mM DTT, 2.5 mM EDTA, 0.005% Polysorbate 20, and 10% DMSO was prepared. […] After reacting the mixture of substrate, test material, and enzyme for 30 minutes, the enzyme activity was measured with the EnVision (Perkin Elmer) microplate reader at an absorption wavelength of 340 nm and an emission wavelength of 460 nm. […]
MEASUREMENT_KIND: IC50 (nM)

N#Cc1nccc(C2(NC(=O)OCc3ccccc3)CCCCC2)n1: 1180
Cc1cccc(NC(=O)NC2(c3ccnc(C#N)n3)CCCC2)c1: 8060
Cc1ccccc1CNC(=O)NC1(c2ccnc(C#N)n2)CCCC1: 5970
CS(=O)(=O)c1ccc(-c2ccc(NC(=O)NC3(c4ccnc(C#N)n4)CCCCC3)cc2C(F)(F)F)cc1: 6520
